# study-system: SARS-CoV-2 Papain-Like Protease (PLpro) (Severe acute respiratory syndrome coronavirus 2 (2019-nCoV) (SARS-CoV-2))
# method-summary: biochemical
# assay-setup: SARS-CoV-2 PLpro enzymatic fluorescence assay; read-out: PLpro IC50
pIC50: −log10 of the molar value.
// reported pIC50 per item

Examples with answers:
>  <molecule>
Cc1ccc(OC2CNC2)cc1C(=O)NC1(c2cccc3ccccc23)CC1

>  <property-name>
pIC50

>  <measured>
6.00 to 7.00

$$$$
>  <molecule>
Cc1ccc(NC2CNC2)cc1C(=O)NCc1ccc(-c2ccc(CN3CCCC3)s2)cc1

>  <property-name>
pIC50

>  <measured>
< 5.30

$$$$
>  <molecule>
Cc1ccc(OCC2CCN2C)cc1C(=O)NC1(c2cccc3nc(Cl)ccc23)CC1 (stereo not shown)

>  <property-name>
pIC50

>  <measured>
> 7.00

$$$$
>  <molecule>
Cc1ccc(OC[C@@H]2CCN2C)cc1C(=O)NC1(c2cccc3ccccc23)CC1

>  <property-name>
pIC50

>  <measured>
> 7.00

$$$$
>  <molecule>
Cc1cc2cc(CN)[nH]c2cc1C(=O)NC1(c2ccc(-c3ccccc3)cc2)CC1

>  <property-name>
pIC50

>  <measured>
< 5.30

$$$$
>  <molecule>
Cc1ccc(C2(NC(=O)c3cc(OCCN(C)C)ccc3C)CC2)cc1

>  <property-name>
pIC50

>  <measured>
< 5.30

$$$$
>  <molecule>
Cc1ccc(O[C@@H]2CC[C@@H]2N)cc1C(=O)NC1(c2cccc3ccccc23)CC1 (racemic)

>  <property-name>
pIC50

>  <measured>
> 7.00

$$$$
>  <molecule>
COc1cc(C2(NC(=O)c3cc(Oc4ccncc4)ccc3C)CC2)c2cccnc2c1

>  <property-name>
pIC50

>  <measured>
6.00 to 7.00

$$$$
>  <molecule>
COc1cc(C2(NC(=O)c3cc(OC[C@@H]4CCN4C)c(N)cc3C)CC2)c2cccnc2c1

>  <property-name>
pIC50

>  <measured>
> 7.00

$$$$
>  <molecule>
Cc1cc(C2(NC(=O)c3cc(OCCN(C)C)ccc3C)CC2)c2ccccc2c1

>  <property-name>
pIC50

>  <measured>
> 7.00

$$$$

Data request: Output measured pIC50 for this item: "CCNCCOc1ccc(C)c(C(=O)NC2(c3cccc4ccccc34)CC2)c1"
Data returned: > 7.00

Data request: Output measured pIC50 for this item: Cc1ccc(OCC2CCN2C)cc1C(=O)NC1(c2cccc3ccccc23)COC1 (stereo not shown)
Data returned: > 7.00

Data request: Output measured pIC50 for this item: "Cc1ccc(OCCN(C)C)cc1C(=O)NC1(c2cccc(F)c2)CC1"
Data returned: < 5.30

Reference source for all entries: patent US20250025443A1
